Tested on: 931267-113-T-J1-PDC KRAS spheroid with HUVEC/MSC, viability;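 note: compound exposure lasted 7 days before the readout; 100% = DMSO vehicle control viability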
Assay: Anticancer human tumor 931267-113-T-J1-PDC patient-derived colon adenocarcinoma cell line growth inhibition [KRAS2]
Settings: second compound 0.316 µM; first compound 0.01 µM; hits give low values
Answer each item with its documented viability, T/C.

Worked examples, 6 compounds total:
COMPOUND	TARGET_UNDER_TEST	viability, T/C
CC1COCCN1c1cc(-c2ccnn2C)c2ccnc(-c3ccn[nH]3)c2n1 (centres undefined) + CC1OCC2(CCN(c3cnc(Sc4ccnc(N)c4Cl)c(N)n3)CC2)C1N	931267-113-T-J1-PDC KRAS spheroid with HUVEC/MSC, viability	81.2%
CC1COCCN1c1cc(-c2ccnn2C)c2ccnc(-c3ccn[nH]3)c2n1 (centres undefined) + CNCc1ccccc1-c1csc(C(C)Nc2nc(C)nc3cc(OC)c(OC)cc23)c1	931267-113-T-J1-PDC KRAS spheroid with HUVEC/MSC, viability	80.2%
CN(C)C/C=C/C(=O)Nc1cc2c(Nc3ccc(F)c(Cl)c3)ncnc2cc1O[C@H]1CCOC1 + C=CC(=O)N1CCN(c2nc(OCC3CCCN3C)nc3c2CCN(c2cccc4cccc(C)c24)C3)CC1CC#N	931267-113-T-J1-PDC KRAS spheroid with HUVEC/MSC, viability	62.2%
CC(=O)OC12COC1CC(O)C1(C)C(=O)C(O)C3=C(C)C(OC(=O)C(O)C(NC(=O)OC(C)(C)C)c4ccccc4)CC(O)(C(OC(=O)c4ccccc4)C21)C3(C)C (centres undefined) + CC1OCC2(CCN(c3cnc(Sc4ccnc(N)c4Cl)c(N)n3)CC2)C1N	931267-113-T-J1-PDC KRAS spheroid with HUVEC/MSC, viability	74.8%
CC(=O)OC12COC1CC(O)C1(C)C(=O)C(O)C3=C(C)C(OC(=O)C(O)C(NC(=O)OC(C)(C)C)c4ccccc4)CC(O)(C(OC(=O)c4ccccc4)C21)C3(C)C (centres undefined) + C=CC(=O)N1CCN(c2nc(=O)n(-c3c(C)ccnc3C(C)C)c3nc(-c4c(O)cccc4F)c(F)cc23)C(C)C1	931267-113-T-J1-PDC KRAS spheroid with HUVEC/MSC, viability	94.4%
CC1COCCN1c1cc(-c2ccnn2C)c2ccnc(-c3ccn[nH]3)c2n1 (centres undefined) + COc1cc2nc(C)nc(NC(C)c3cc(N)cc(C(F)(F)F)c3)c2cc1OC1CCOC1	931267-113-T-J1-PDC KRAS spheroid with HUVEC/MSC, viability	83.4%

Below are 2 compounds. Give each one its viability, T/C.
1. Cn1ncnc1[C@H]1c2n[nH]c(=O)c3cc(F)cc(c23)N[C@@H]1c1ccc(F)cc1 + CC1OCC2(CCN(c3cnc(Sc4ccnc(N)c4Cl)c(N)n3)CC2)C1N
2. CC1COCCN1c1cc(-c2ccnn2C)c2ccnc(-c3ccn[nH]3)c2n1 (centres undefined) + C=CC(=O)N1CCN(c2nc(OCC3CCCN3C)nc3c2CCN(c2cccc4cccc(C)c24)C3)CC1CC#N

OUTPUT:
78.9%
75.6%
